Taken from ChEMBL document CHEMBL1152654.

tested on: Hamster; experiment: Inhibition of human neutrophil elastase-induced lung hemorrhage in hamster at 3 mg/kg, iv administered as bolus dose; assay type: functional; conditions: Cricetinae
Kindly return Met if reported inhibition in vivo at 3 mg/kg is no lower than 40%; return Not met if it is lower.

Observe how each entry below is paired with its result.
{"Smiles entry": "CC(C)[C@H](NC(=O)[C@@H]1CCCN1C(=O)[C@@H](NC(=O)CN1CCN(CC(=O)O)C(=O)C1=O)C(C)C)C(=O)c1nc2ccccc2o1", "Class name": "Met"}
{"Smiles entry": "CC(C)[C@H](NC(=O)[C@@H]1CCCN1C(=O)[C@@H](NC(=O)CN1C(=O)CN(CC(=O)O)C1=O)C(C)C)C(=O)c1nc2ccccc2o1", "Class name": "Not met"}

Lookup: Could you tell me if the measured inhibition in vivo at 3 mg/kg of `CC(C)[C@H](NC(=O)[C@@H]1CCCN1C(=O)[C@@H](NC(=O)Cn1ccc(=O)n(CC(=O)O)c1=O)C(C)C)C(=O)c1nc2ccccc2o1` reaches 40% or more?
Found: Not met

* * *

system: Hamster; assay: Inhibition of human neutrophil elastase-induced lung hemorrhage in hamster at 3 mg/kg, iv administered as bolus dose; assay type: functional; details: Cricetinae
Quantity name: inhibition in vivo at 3 mg/kg (%)
Field format: number, assumed %, no unit text.

See these solved cases before continuing.
{"Smiles entry": "CC(C)[C@H](NC(=O)[C@@H]1CCCN1C(=O)[C@@H](NC(=O)CN1C(=O)N(CC(=O)O)C(=O)C1(C)C)C(C)C)C(=O)c1nc2ccccc2o1", "Tested system": "Hamster", "Unit info": "%", "inhibition in vivo at 3 mg/kg": 40}
{"Smiles entry": "CC(C)[C@H](NC(=O)[C@@H]1CCCN1C(=O)[C@@H](NC(=O)CN1C(=O)N(CC(=O)O)C(C)(C)C1=O)C(C)C)C(=O)c1nc2ccccc2o1", "Tested system": "Hamster", "Unit info": "%", "inhibition in vivo at 3 mg/kg": 20}
{"Smiles entry": "CC(C)[C@H](NC(=O)[C@@H]1CCCN1C(=O)[C@@H](NC(=O)CN1CCC(=O)N(CC(=O)O)C1=O)C(C)C)C(=O)c1nc2ccccc2o1", "Tested system": "Hamster", "Unit info": "%", "inhibition in vivo at 3 mg/kg": 38}

Now for the compound whose inhibition in vivo at 3 mg/kg we want.
The compound `CC(C)[C@H](NC(=O)[C@@H]1CCCN1C(=O)[C@@H](NC(=O)CN1CCN(CC(=O)O)CC1)C(C)C)C(=O)c1nc2ccccc2o1` showed inhibition in vivo at 3 mg/kg equal to 44
